# maps each entry to its degraded at 40 min
assay: Drug metabolism assessed as ring opening in EtOH/H2O at 75 mM measured after 40 mins under dark condition by UV-vis spectrophotometric method; type: physicochemical; conditions: EtOH/H2O; read-out: Drug metabolism

[O-]c1on[s+]c1-c1ccc(F)cc1    40 to 80%

Ask: Any idea what its degraded at 40 min is? The compound is [O-]c1on[s+]c1-c1cc(F)cc(F)c1
Reply: 40 to 80%

Ask: What do you get for [O-]c1on[s+]c1-c1ccccc1 ?
Reply: 48%

Ask: Now consider [O-]c1on[s+]c1-c1cccc(Cl)c1 and answer again.
Reply: 40 to 80%

====

assay: Photochemical stability of the compound in EtOH/H2O assessed as ring opening by measuring compound decomposition at 75 mM measured in presence of ambient daylight conditions after 40 mins by UV-vis spectrophotometric method; assay type: physicochemical; conditions: EtOH/H2O; read-out: Drug degradation
observation.type: degraded at 40 min (%)

P. [O-]c1on[s+]c1-c1ccc(F)cc1
Q. [O-]c1on[s+]c1-c1ccc(Cl)cc1
Ask: Kindly identify the item with the lower degraded at 40 min figure among these two: P and Q Refer to your chosen entry by its label in the reply.
Reply: Q

====

assay: Photochemical stability of the compound assessed as compound decomposition in phosphate buffer at pH 7.4 exposed to daylight at 0.4 mM measured over 3 hrs by UV-Vis absorbance method; format: physicochemical; settings: read-out: Drug degradation
observation.type: degraded at 3 h, 400 µM (%)
# output: bare number, implied unit %

Ask: Which measured degraded at 3 h, 400 µM value corresponds to [O-]c1on[s+]c1-c1ccccc1 ?
Reply: 7
